Here the recorded plasma stability is given for each entry.
- Tested on: Human plasma stability, percent remaining
- Assay details: compound stability in Homo sapiens plasma, ADME assay, biochemical, second set (AID 624420)
- Condition description: at 1 µM

{"Compound": "c1ccc2c(Nc3nnc(-c4ccncc4)s3)cccc2c1", "Target or test system": "Human plasma stability, percent remaining", "Result units": "%", "plasma stability": 99.5}
{"Compound": "Cc1ccc(C)c(OCCn2cc(C(=O)O)c3ccccc32)c1", "Target or test system": "Human plasma stability, percent remaining", "Result units": "%", "plasma stability": 91.6}
{"Compound": "O=C1CCCC2=C1C1(CCCC1)N=C(Nc1nc3ccccc3o1)N2", "Target or test system": "Human plasma stability, percent remaining", "Result units": "%", "plasma stability": 100}
{"Compound": "O=c1[nH]c(SCc2ccc(Cl)cc2)nc2c1CCC2", "Target or test system": "Human plasma stability, percent remaining", "Result units": "%", "plasma stability": 100}
{"Compound": "COC(=O)c1ccccc1NC(=O)c1ccc(F)cc1", "Target or test system": "Human plasma stability, percent remaining", "Result units": "%", "plasma stability": 80}
{"Compound": "Cc1nc(SCc2nc3ccccc3[nH]2)c2oc3ccccc3c2n1", "Target or test system": "Human plasma stability, percent remaining", "Result units": "%", "plasma stability": 88}
{"Compound": "Cc1cc(-c2nnc3n2CCCCC3)c(C)n1-c1ccccc1", "Target or test system": "Human plasma stability, percent remaining", "Result units": "%", "plasma stability": 87.9}
{"Compound": "CCCN1CNc2c(c(=O)[nH]c(=S)n2CCc2ccc(OC)c(OC)c2)C1", "Target or test system": "Human plasma stability, percent remaining", "Result units": "%", "plasma stability": 85.1}
{"Compound": "c1ccc(CC2CCN(c3ncnc4sccc34)CC2)cc1", "Target or test system": "Human plasma stability, percent remaining", "Result units": "%", "plasma stability": 100}
{"Compound": "Cc1ccc(NS(=O)(=O)c2ccc3c(c2)CCC(=O)N3)cc1C", "Target or test system": "Human plasma stability, percent remaining", "Result units": "%", "plasma stability": 100}
{"Compound": "Cc1cc2c(s1)c1cnn(Cc3ccccc3F)c(=O)c1n2C", "Target or test system": "Human plasma stability, percent remaining", "Result units": "%", "plasma stability": 82.8}
{"Compound": "Cc1ccc(S(=O)(=O)NCc2ccc(C(=O)NCCN(Cc3ccccc3)C(C)C)cc2)cc1", "Target or test system": "Human plasma stability, percent remaining", "Result units": "%", "plasma stability": 100}
{"Compound": "COc1ccc(N(C(=O)CCl)C(C(=O)NCCc2ccccc2)c2cccs2)cc1Cl (configuration not stated)", "Target or test system": "Human plasma stability, percent remaining", "Result units": "%", "plasma stability": 68.2}
{"Compound": "Cc1cc(C)nc(-n2nc(C)c(Sc3ccc(F)cc3)c2N)n1", "Target or test system": "Human plasma stability, percent remaining", "Result units": "%", "plasma stability": 97}
{"Compound": "Cn1cnc([N+](=O)[O-])c1Sc1ncnc2nc[nH]c12", "Target or test system": "Human plasma stability, percent remaining", "Result units": "%", "plasma stability": 83.2}
{"Compound": "O=c1c2ccccc2[se]n1-c1ccccc1", "Target or test system": "Human plasma stability, percent remaining", "Result units": "%", "plasma stability": 100}
{"Compound": "Cc1ccc(N2CCN(S(=O)(=O)N3CCCCC3)CC2)c(C)c1", "Target or test system": "Human plasma stability, percent remaining", "Result units": "%", "plasma stability": 100}
{"Compound": "C=CCn1c(SCC(=O)c2ccc(O)c(O)c2)nnc1-c1ccccc1OC", "Target or test system": "Human plasma stability, percent remaining", "Result units": "%", "plasma stability": 100}
{"Compound": "CCc1nnc(NC(=O)c2ccc(NS(=O)(=O)c3ccccc3)cc2)s1", "Target or test system": "Human plasma stability, percent remaining", "Result units": "%", "plasma stability": 100}
{"Compound": "N#C/C(=C\\c1ccc([N+](=O)[O-])o1)c1nc2ccccc2[nH]1", "Target or test system": "Human plasma stability, percent remaining", "Result units": "%", "plasma stability": 16.9}
{"Compound": "COc1ccc(C2c3c(ncn(CCN4CCOCC4)c3=N)Oc3ccc4ccccc4c32)cc1OC (configuration not stated)", "Target or test system": "Human plasma stability, percent remaining", "Result units": "%", "plasma stability": 93.5}
{"Compound": "CS(=O)(=O)c1ccc(C(=O)OCC(=O)NC23CC4CC(CC(C4)C2)C3)cc1[N+](=O)[O-]", "Target or test system": "Human plasma stability, percent remaining", "Result units": "%", "plasma stability": 0.07}
